Ref: paper PMC12040169

Reported values of viability at 28.5 h, 10 µM for individual entries
- assay protocol: in vitro
- test conditions: human, hela cells, % viability
metric: viability at 28.5 h, 10 µM (%)

>>> assay_result("Cc1ccc2nc(SCC(=O)Nc3ccccc3Br)c(C#N)cc2c1 [CBK068169]")
94.4
>>> assay_result("Cc1c(S(=O)(=O)Nc2nnn[nH]2)sc2ccc(Cl)cc12 [CBK062392]")
91.7
>>> assay_result("CCS(=O)(=O)N1CCN(Cc2ccccc2OC)CC1 [CBK264280G]")
92.7
>>> assay_result("CN(C)C(CNc1nccnc1-c1ccc(CO)cc1)c1cccnc1 (centres unmarked) [CBK038038]")
87.6
>>> assay_result("IC1COC(c2ccccc2)OC1 (centres unmarked) [CBK021109]")
110
>>> assay_result("O=C(c1ccc2[nH]c(=O)[nH]c2c1)N1CCCC2(CCN(C(=O)c3cc(F)c(F)cc3F)C2)C1 (centres unmarked) [CBK131566]")
106
>>> assay_result("NCC(=O)N(CCC1CCCC1)c1cccc2ccccc12 [CBK011922C]")
88.2
>>> assay_result("c1ccc(-c2ccccc2CN2CCN(c3nccnc3OCCN3CCOCC3)CC2)cc1 [CBK082893T]")
90.7
>>> assay_result("O=C(NCc1ccccn1)c1ccc(NS(=O)(=O)c2cccc(Cl)c2)cc1 [CBK267249]")
111
>>> assay_result("CC(C)(C)OC(=O)N1CCN(c2cc(N)ncn2)CC1 [CBK001963]")
101
>>> assay_result("CCCNc1nc(Cl)nc(NC(C)(C)C)n1 [CBK091674]")
86.3
>>> assay_result("Cc1ccccc1-c1ccc(C(=O)NC2CCCCC2)c(NCc2cccnc2)n1 [CBK076159]")
90.5
>>> assay_result("CC(C)(C)OC(=O)N1CCC(Oc2nccc3c2ccn3Cc2ccc(S(C)(=O)=O)cc2)CC1 [CBK132881]")
89.2
>>> assay_result("O=C(NC(c1ccc(-c2ccccc2)cc1)c1cnccn1)C1CCN(CCOc2ccc3ccccc3c2)CC1 (centres unmarked) [CBK147982]")
93.6
>>> assay_result("CC(=O)NC1(c2ccccc2)CCN(CC(O)c2ccccc2)CC1 (centres unmarked) [CBK284819]")
107
>>> assay_result("O=C1CC(c2ccc(S(=O)(=O)NCc3ccccc3)cc2)CN1 (centres unmarked) [CBK270155]")
87.5
>>> assay_result("O=C(Nc1cccc([N+](=O)[O-])c1)c1cc(S(=O)(=O)N2CCCCC2)ccc1Cl [CBK261367]")
93.9
>>> assay_result("Cc1ccc(NS(=O)(=O)c2c(Br)sc3ccnc(N4CCN(C)CC4)c23)cc1 [CBK034654C]")
103
>>> assay_result("COc1cccc(CC(=O)Nc2ncccc2C)c1 [CBK304982]")
98.9
>>> assay_result("O=C(CSc1nnc(-c2cccnc2)o1)c1ccc(Oc2ccccc2)cc1 [CBK266327]")
88.1
>>> assay_result("O=C(O)c1cccc(NS(=O)(=O)c2cccs2)c1 [CBK270068]")
59.5
>>> assay_result("Cc1nn(CC(=O)N2CCCC(C)C2)c(=O)c2cc3ccsc3n12 (centres unmarked) [CBK284041]")
81.7
>>> assay_result("CCN1CCC2(CC1)CN(CC(N)=O)c1ccccc12 [CBK126798]")
80.4
>>> assay_result("NC(=O)c1ccc(NC(=O)CCCc2nc(-c3ccccc3Cl)no2)cc1 [CBK268932]")
103
>>> assay_result("CCNC(=O)N1CCN(CCCC(O)c2ccc(F)cc2)CC1 (centres unmarked) [CBK025001C]")
118
>>> assay_result("Cc1ccc(C(=O)NC(=S)Nc2cccc(NC(=O)c3ccccc3C)c2)cc1 [CBK264049]")
95.1
>>> assay_result("COc1ccc(Cl)cc1/C=C/C(=O)NCc1ccc(C(=O)O)cc1 [CBK286908]")
89.3
>>> assay_result("Nc1nc2nn([C@H]3C[C@@H](O)[C@@H](CO)O3)cc2c(=O)[nH]1 [CBK201218]")
90.3
>>> assay_result("CCN(CC)Cc1cc([N+](=O)[O-])cc2c1OCOC2 [CBK296613]")
113
>>> assay_result("Cc1cc2c(s1)c1cnn(CC(=O)N3CCCC3)c(=O)c1n2C [CBK284153]")
85.6
>>> assay_result("CC(C)Cc1cc(CNC(=O)C(C)n2cc(Cl)cn2)on1 (centres unmarked) [CBK281524]")
92.8
>>> assay_result("CC(C)n1c(NCc2nc3ccccc3n2C)nc2ccccc21 [CBK265571]")
83.6
>>> assay_result("O=C(CSCc1ccc([N+](=O)[O-])cc1)Nc1ccc2c(c1)OCO2 [CBK264031]")
95.7
>>> assay_result("Cc1nccn1CC1(O)CCN(C(=O)C(C)c2ccccc2)CC1 (centres unmarked) [CBK285388]")
104
>>> assay_result("COc1ccc([C@@]23CC[C@@H](NC(=O)Nc4cc(C)c(C)cc4[N+](=O)[O-])C[C@@H]2N(C)CC3)cc1OC [CBK036478T]")
67.8
>>> assay_result("OC1CCC(Nc2cncc(-c3ccc4ccccc4c3)n2)CC1 (centres unmarked) [CBK065463]")
91.7
>>> assay_result("Cn1c(=O)[nH]c(=O)c2c1nc(N1CCOCC1)n2CC(O)COc1ccc(I)cc1 (centres unmarked) [CBK262438]")
111
>>> assay_result("O=C(Cc1ccccc1)NN1C(=O)/C(=C/c2ccccc2C(=O)O)SC1=S [CBK262975]")
104
